Target: Sodium channel alpha subunits; brain (Types I, II, III) (Rattus norvegicus, UniProt P04775+P04774+P08104)
Experiment: Binding of [3H]saxitoxin (STX) to rat brain sodium channel
For each entry below, report its IC50 value.

In: // Input: COc1ccc2c(c1)C13CCCCC1C(C2)N(C)CC3 (stereo not drawn) [RACEMETHORPHAN] . Output its IC50 only.
Out: > 300 µM

In: Retrieve IC50 measured for C[C@H](C(N)=O)N1CCC23CCCCC2[C@@H]1Cc1ccc(OCc2cccc(F)c2)cc13 (some centres undefined) and print it.
Out: > 300 µM

In: Fill in IC50 for record CNC(=O)[C@@H](C)N1CCC23CCCCC2[C@@H]1Cc1ccc(OCc2cccc(F)c2)cc13 (some centres undefined)
Out: > 300 µM

In: Quickly give me recorded IC50 for CS(=O)(=O)O.C[C@H](NCc1ccc(OCc2cccc(F)c2)cc1)C(N)=O [SAFINAMIDE MESYLATE]
Out: > 300 µM
